Values were extracted from the nanobody polyreactivity screen of Harvey et al. (2022).

assay: yeast display, Sf9 membrane polyspecificity reagent, FACS + sequencing; frameworks hold sequencing errors
OBSERVATION TYPE: polyreactivity (PSR sort gate)

{"SEQUENCE CHAIN": "QGQLVESGGCLVQAGGSRRLSCAASGRTFRGNAMGWYRQAPGKERELVPAISRRGGSTYYSDSVKGRFTISRDNAKITVYLQMNSLEPEDTADYYCARDDVDDNSYGNENGTYGYWGQGTQVTVSS", "OBSERVATION TYPE": "polyreactivity (PSR sort gate)", "ENDPOINT RESULT": "high polyreactivity"}
{"SEQUENCE CHAIN": "QVQLVESVGGLVQAGGSLRLSCAASGSIFVNNAMGWYRQAPGKERELVAAISRSGGSTYYADSVKGRFTISRDNAKNTVYLQMNSLKPEDTAVYYCATVHRSSTPPEFNYWGQGTQVTVSS", "OBSERVATION TYPE": "polyreactivity (PSR sort gate)", "ENDPOINT RESULT": "high polyreactivity"}
{"SEQUENCE CHAIN": "QVQLVESGGGLVQAGGSLRLSCAASGRIFTVYAMGWYRQAPGKERELVAAIDFSDGTTYYADSVKARFTISRDNAKNTVYLQMNSLKPEDTAVYYCAAEGGSALDDDYWGQGTQVTVSS", "OBSERVATION TYPE": "polyreactivity (PSR sort gate)", "ENDPOINT RESULT": "high polyreactivity"}

* * *

experiment: yeast display, Sf9 membrane polyspecificity reagent, FACS + sequencing; frameworks hold sequencing errors
OBSERVATION TYPE: polyreactivity (PSR sort gate)

{"SEQUENCE CHAIN": "QVQLVESGGGLVQAGGSLRLSCAASGSTFAWYAMGWYRQAPGKERELVAAISSTVGSTYYADSVKGRFTISRDNAKNTVYLQLKSLKPEDTAVYYCARYYYRYYIRQLALGASTYDYWGQGTQVTVSS", "ENDPOINT RESULT": "high polyreactivity"}
{"SEQUENCE CHAIN": "QVQLVESGGGLVQAGGSLRLSCAASGFTFSENAMGWYRQAPGRERELVADIPRSGGNTHYADSEKGRFTISRDNAKNTVYLQMNSLKPEDTAVYYCAARVQWLGYGYYYWGQGTQVTVSS", "ENDPOINT RESULT": "high polyreactivity"}

* * *

test: yeast display, Sf9 membrane polyspecificity reagent, FACS + sequencing; frameworks hold sequencing errors
OBSERVATION TYPE: polyreactivity (PSR sort gate)

Please review the following examples before continuing.
{"SEQUENCE CHAIN": "QVQLVESGGGLVQAGGRLRLSCAASGFIFAKYAMGWYRQAPGKERELVAAITSSGVSTYYADSVKGRFTISRDNAKNTVYLQMNSLKPADTAVYYCNARERYSYWGQGTQVTVSS", "polyreactivity (PSR sort gate)": "high polyreactivity"}
{"SEQUENCE CHAIN": "QVQLVESGGGLVQAGGSLRLSCAASGRTFQINAMGWYRQAPGKERELVAAITWSGGSTYYADSVKRRFTISPDNAKNPVYLQMNSLKPADTALYYCNTRYRAYATLNLIAGYNSWGQGTQVTVSS", "polyreactivity (PSR sort gate)": "low polyreactivity"}
{"SEQUENCE CHAIN": "QVQLVESGGGLVQAGGSHRLSCAASGSIFQSYAMGWYRQAPGKERELVAAIDRSGTSTYYADSVKGRFTISRDNAKNTVYLQMNSLKPEDTAVYYCNTLRRSWQMDYWGQGTQVTVSS", "polyreactivity (PSR sort gate)": "low polyreactivity"}
{"SEQUENCE CHAIN": "KVQLVESGGGLVQAGGSLRLSCAASGSIFWFYAMGWYRQAPGKEREFVATISRSCGSTYYADSVKGRFTISRDNAKNTDYLQMNSLKPEDTAVYYCIARGPRSHRYDYWGQGTQVNVSS", "polyreactivity (PSR sort gate)": "high polyreactivity"}
{"SEQUENCE CHAIN": "QVQLVESGGGLVQAGGSLRLSCAASGSTFQYNVMGWYRQAPGKERELVAAITNRDGSTYYADSVKGRFTISRDNAKNTVYLQMNSLKPEDTAVYYCAAPVWLWADRYDSWGQGTQVTVSS", "polyreactivity (PSR sort gate)": "low polyreactivity"}
{"SEQUENCE CHAIN": "QVQLVESGGGLVQAGGSLRLSLAASGRTFEYYAMGWYRQAPGKERELVAAITSGGITYYADSVKGRFTISRDNAKNTVYLQMNSLKPEDTAVYYCNDRHRYYRYGYWGQGSQVTVSS", "polyreactivity (PSR sort gate)": "high polyreactivity"}
{"SEQUENCE CHAIN": "QVQLVESGGGLVQAGGSLRLSCAASGRIFGYNAMGWYRQAPGKEREFVAAITYRGGSTYYADSVKGRFTISRDNAKTTVYLEMNSLKPEDTAVYYCASRVTQYPKYWGDYWGQGTQVTVSS", "polyreactivity (PSR sort gate)": "high polyreactivity"}
{"SEQUENCE CHAIN": "QVQLVESGGGLVQAGGSLRLSCAASGYTFSDNAMGWYRPAPGKERELVAAITSGVSTYYADSVKGRFRISRDNAKNSVYLQMNSLNPEDTAVYYCAAEPDTYWYTYDYWGQGTQVTVSS", "polyreactivity (PSR sort gate)": "low polyreactivity"}
{"SEQUENCE CHAIN": "QVQIVESGGRLVQAGCSLRLSCAASGRIFTRYAMGWYRQAPGKERELVASIRHSGGSTYYADSVKGRFTISRDNAKNTVYLQMNSLKPEDTAVYYCAARGKKGTRYNYNYWGHGTQVTVSS", "polyreactivity (PSR sort gate)": "high polyreactivity"}
{"SEQUENCE CHAIN": "QVHLVESGGGLVQAGGSLRLSCAASGRTFPPYAMGGYRQAPGKERELVAAISIVGSTYYADSVKGRFTISRDNAKNTVYLQMNSLKPEDTAVYYCAADVAGYYKLYDYWGQGTQVTVSS", "polyreactivity (PSR sort gate)": "high polyreactivity"}

Okay, now this sequence:
Fill in reported polyreactivity (PSR sort gate) for this entry: "QVQLVETGAGLVQAGGSLRLSCGASGLTFARYAMGWYRQAPGKERELVAGIDSTGGTTYYADSVKGRFTISRDNAKNTVYLQMNSLKPVDTAVYYCYYWGLGTQVTVSS" low polyreactivity

* * *

assay: yeast display, Sf9 membrane polyspecificity reagent, FACS + sequencing; frameworks hold sequencing errors
OBSERVATION TYPE: polyreactivity (PSR sort gate)

Please review the following examples before continuing.
{"SEQUENCE CHAIN": "QVQLVESGGGLVQAGGSLRLSSAASGSIFPRYVMGCYRQAPGKERELVPAISRGGSTNYADSVKGRFTISRDNAKNTVYLQMNSLKPEDTAVYYCDAVLYTRYNYWGQGTQVTVSS", "ENDPOINT RESULT": "high polyreactivity"}
{"SEQUENCE CHAIN": "QVQLVESGGGLVQAGGSLRLSCAASTYLRLLMLWDGIDLRLGKKGSWLTLLTLVVNSTYYADSVKGRFTISRDNAKNTVFLQMNSLKPEDTAVYYCNVDPYGTYARTHLEYWGQGTQVTVSS", "ENDPOINT RESULT": "low polyreactivity"}
{"SEQUENCE CHAIN": "QVQLVESGGGLVQAGGSLRLSCAASGIIFPSYAMGWYRQAPGKERELVAAISLSGGRTYYADSVKGRFTISRDNAKNTVYLQMNSLKPEDTAVYYCAAYPTTRYSKYGYYWGQGTQVTVSS", "ENDPOINT RESULT": "high polyreactivity"}
{"SEQUENCE CHAIN": "QDQLVESGGGLVQAGGSLRLSCAASGRIFVVYAMGCYRQAPGKERELVAAITGGGRTNYADSVKGRFTISRENAKNTVYLQMKSLKPEDTAVYYCAAGTRSDARRYFYWGQGTQVTVSS", "ENDPOINT RESULT": "low polyreactivity"}

Okay, now this sequence:
Fill in reported polyreactivity (PSR sort gate) for this entry: "QVQLVESGGGLVQAGGSLRLSCAATGSIFSYYDMAWYRQAPGNERELVAGISRGGSTNYADSVKGRFTISRDNGKNTVYLQMNSLKEEDTAVYYCNADQSSRTYPFRRSRRSWLYGYWGQGTQVTVSS" low polyreactivity

* * *

experiment: yeast display, Sf9 membrane polyspecificity reagent, FACS + sequencing; frameworks hold sequencing errors
OBSERVATION TYPE: polyreactivity (PSR sort gate)

Please review the following examples before continuing.
{"SEQUENCE CHAIN": "QVQLVESGGGLVQAGGSLRLSCAASGSTFEQYAMGWYRQAPGKERELVASISTGGGRTYYADSVKGRFTISRDNAKNTVFLQMNSLKPEDTAVYYCNKRYRGYKTGYSRYDYWGQGTQVTVSS", "polyreactivity (PSR sort gate)": "low polyreactivity"}
{"SEQUENCE CHAIN": "QVQLVESGGGIVQAGGSLRLSCAASGFIFYRYAMGWYRQAPGKERELVAAITGSGARTYYADSVKGRFTISRDNAKNTVYLQMNSLKPEDTAVYYCNARGYRGYDYWGQGTQVTVSS", "polyreactivity (PSR sort gate)": "high polyreactivity"}
{"SEQUENCE CHAIN": "QVQLVESGGGLVQAGGSLRLSCAASGSIFGYYTMGWYRQAPGKERELVAAISRRGGSTYYADSVKGRFTISRDNAKKTVYLQMNSLKPEDTAVYYCAADVARSRHFEMDYWGQGTQVTVSS", "polyreactivity (PSR sort gate)": "high polyreactivity"}
{"SEQUENCE CHAIN": "QVQLVESGGGLVQAGGSLRLSCAASGRIFRRYAMGWYREAPGKERELVAAITASGGITYYADSVKGRFTISRDNAKNTVYLQMNSLKPEDTAVYYCAARGSSGYDYWGQGTQVTVSS", "polyreactivity (PSR sort gate)": "high polyreactivity"}
{"SEQUENCE CHAIN": "QVQLVESGGGLVQAGGSLRLSCAASGITFAGYARGWYRQAPGKERELVAAISGSGGSTYYADSVKGRFTISRDNAKNTVYLQMNSLKPEDTAVYYCNADVVPQYYSWGQGTQVTVSS", "polyreactivity (PSR sort gate)": "low polyreactivity"}
{"SEQUENCE CHAIN": "QVQLVESGGGLVQAGGSLRLSCAASGSTFVYNAMGWYRQAPGKERELVAAITNSGSTYYADSVKGRFTISRDNAKNTVYLQMNSLKPEDTAVYDCAARSRVYWARSGYWGQGTQVTVAS", "polyreactivity (PSR sort gate)": "low polyreactivity"}
{"SEQUENCE CHAIN": "QVQLVESGGGLVQAGGSLRLSCAASGSTFTSYTMGWYRQAPGKERELVARITRGGGSTYYADSVKGRFTISRDNAKNTVYLQMNSLKPEDTRSSPVLSYDYWGQGTQVTVSS", "polyreactivity (PSR sort gate)": "low polyreactivity"}
{"SEQUENCE CHAIN": "QVQLVESGGGLVQAGGSLRLSCAASGSIIRSYTMGWYRQAPGKERELVASISRTGGSTHYADSVKGRFTISRDNAKNTVYLQMNSLKPEDTAVYYCNADTRRNRLMDYWGQGTQVTVSS", "polyreactivity (PSR sort gate)": "high polyreactivity"}

Fill in reported polyreactivity (PSR sort gate) for this entry: "QVQLVESGGGLVQAGGSLRLSCAASGNIFYSYAMGWYRQAPGKARELVATIRSGGSTYYADSVKGRFTISRDKAKNTVYLQMNSLKPEDTAVYYCAAPYPYRYFEYYWGQGTQVNVSS" low polyreactivity

Fill in reported polyreactivity (PSR sort gate) for this entry: "QVQLVESGGGLVQAGGSLRLSCAASGSIVAGYAMGWYRQAPGKEREMVAAISDSGGNTYYADSVKGRFTISRDNAKNTVYLQMNSLKPEDTAVYYCAADLGYGPLRELEYWGQGTQVTVSS" low polyreactivity

Fill in reported polyreactivity (PSR sort gate) for this entry: "QVQLVESGGGLVQAGGSLRLSCAACGRIFGENAMGWYRQAPGKERELVASISSTDSTYYADSVKGRFTISRDNAKNTVYLQMNSLKPEDTAVYYSAARWISVWSEGAEHDYWGQGTQVTVSS" low polyreactivity

Fill in reported polyreactivity (PSR sort gate) for this entry: "QVQLVESGGGLVQAGGSLRLSCAASGLIFPRYAMGWYRQAPGKERELVAAITRGGSTYYADSVKGRFTISRDNAKNTVYLQMNSLKPEDTAVYYCNAELPVHWSWYDYWGQGTQVTVSS" low polyreactivity

Fill in reported polyreactivity (PSR sort gate) for this entry: "QDQLVESGGGLVQAGGTLRLRCAATGSTVYPTYAMGWYRQAPGKEWELVATITGSGGYTYYADSVKGRFTISRDNAKNTVYLQINSLKPEDTAVYYCAADRWYSRYTRYGYRGQGTQVTVSS" low polyreactivity
